Read-out: Fatty acid synthase (Homo sapiens) (UniProt P49327)
Sequence (P49327 whole entry, looked up): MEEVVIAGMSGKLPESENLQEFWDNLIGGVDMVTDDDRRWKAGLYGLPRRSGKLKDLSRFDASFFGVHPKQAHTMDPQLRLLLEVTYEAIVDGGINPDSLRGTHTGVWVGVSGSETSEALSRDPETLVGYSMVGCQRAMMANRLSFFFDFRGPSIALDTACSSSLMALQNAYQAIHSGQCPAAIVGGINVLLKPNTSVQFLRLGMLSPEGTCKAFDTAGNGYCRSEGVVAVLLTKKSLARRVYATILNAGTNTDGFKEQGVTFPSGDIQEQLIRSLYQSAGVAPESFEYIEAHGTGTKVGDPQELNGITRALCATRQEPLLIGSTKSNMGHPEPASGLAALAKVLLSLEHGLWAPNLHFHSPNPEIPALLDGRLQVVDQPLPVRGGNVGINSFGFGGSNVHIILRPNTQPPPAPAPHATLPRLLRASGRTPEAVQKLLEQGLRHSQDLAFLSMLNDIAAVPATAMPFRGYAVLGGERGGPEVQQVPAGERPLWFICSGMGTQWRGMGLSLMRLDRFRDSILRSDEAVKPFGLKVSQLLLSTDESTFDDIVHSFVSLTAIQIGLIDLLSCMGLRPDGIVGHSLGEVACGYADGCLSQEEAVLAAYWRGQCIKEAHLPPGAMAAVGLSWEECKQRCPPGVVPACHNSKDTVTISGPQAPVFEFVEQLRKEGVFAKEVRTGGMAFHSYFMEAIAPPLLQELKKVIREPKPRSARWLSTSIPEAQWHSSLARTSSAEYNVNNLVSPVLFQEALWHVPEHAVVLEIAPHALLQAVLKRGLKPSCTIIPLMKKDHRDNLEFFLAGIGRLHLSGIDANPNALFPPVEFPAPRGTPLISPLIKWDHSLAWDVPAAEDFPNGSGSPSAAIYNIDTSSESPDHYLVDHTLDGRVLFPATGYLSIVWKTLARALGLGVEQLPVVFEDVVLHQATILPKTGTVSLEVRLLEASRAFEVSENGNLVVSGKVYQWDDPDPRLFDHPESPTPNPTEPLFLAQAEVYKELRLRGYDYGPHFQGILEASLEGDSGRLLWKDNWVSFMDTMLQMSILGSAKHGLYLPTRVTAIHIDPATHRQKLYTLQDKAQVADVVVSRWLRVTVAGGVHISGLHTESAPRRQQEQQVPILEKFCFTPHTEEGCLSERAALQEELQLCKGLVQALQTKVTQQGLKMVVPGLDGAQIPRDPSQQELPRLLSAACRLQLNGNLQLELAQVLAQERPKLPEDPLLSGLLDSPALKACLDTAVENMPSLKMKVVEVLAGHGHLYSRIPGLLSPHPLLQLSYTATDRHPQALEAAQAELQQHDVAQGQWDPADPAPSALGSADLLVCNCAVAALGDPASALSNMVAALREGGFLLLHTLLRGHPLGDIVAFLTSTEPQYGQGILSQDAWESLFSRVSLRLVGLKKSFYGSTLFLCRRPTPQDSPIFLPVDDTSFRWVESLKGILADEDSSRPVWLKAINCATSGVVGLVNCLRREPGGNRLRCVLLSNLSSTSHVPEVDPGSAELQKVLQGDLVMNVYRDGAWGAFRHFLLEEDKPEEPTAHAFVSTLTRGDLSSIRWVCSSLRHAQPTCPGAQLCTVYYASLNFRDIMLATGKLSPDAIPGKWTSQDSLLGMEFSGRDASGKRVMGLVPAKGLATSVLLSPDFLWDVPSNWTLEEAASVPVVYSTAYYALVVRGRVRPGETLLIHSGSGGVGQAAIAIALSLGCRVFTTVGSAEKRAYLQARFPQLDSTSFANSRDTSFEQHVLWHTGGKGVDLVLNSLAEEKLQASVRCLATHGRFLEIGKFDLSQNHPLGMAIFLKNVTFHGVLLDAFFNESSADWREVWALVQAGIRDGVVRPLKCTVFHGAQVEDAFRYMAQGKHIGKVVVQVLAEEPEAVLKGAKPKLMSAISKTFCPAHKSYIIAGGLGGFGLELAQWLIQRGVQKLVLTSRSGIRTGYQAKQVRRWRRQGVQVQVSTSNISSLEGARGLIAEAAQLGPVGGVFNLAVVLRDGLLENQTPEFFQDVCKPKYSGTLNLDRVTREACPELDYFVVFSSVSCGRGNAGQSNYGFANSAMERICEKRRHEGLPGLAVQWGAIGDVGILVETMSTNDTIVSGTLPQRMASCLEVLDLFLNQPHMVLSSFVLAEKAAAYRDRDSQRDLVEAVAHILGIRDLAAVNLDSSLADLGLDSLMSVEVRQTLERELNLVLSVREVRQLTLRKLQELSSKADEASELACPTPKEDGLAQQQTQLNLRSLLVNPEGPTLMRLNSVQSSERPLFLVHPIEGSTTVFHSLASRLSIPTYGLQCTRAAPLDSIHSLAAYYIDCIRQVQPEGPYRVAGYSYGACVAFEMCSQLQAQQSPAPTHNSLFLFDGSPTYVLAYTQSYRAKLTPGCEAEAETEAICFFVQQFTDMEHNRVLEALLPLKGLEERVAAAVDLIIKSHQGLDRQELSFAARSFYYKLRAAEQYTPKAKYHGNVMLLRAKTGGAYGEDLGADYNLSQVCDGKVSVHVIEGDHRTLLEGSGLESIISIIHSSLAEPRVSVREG
Assay: LTEA_HepaRG_FASN: Life Technologies and Expression Analysis (LTEA) Assay for Fatty Acid Synthase (FASN) using HepaRG (AID 2283448)
Conditions: mRNA level, 48 h; actives raise or lower the signal
The source made the active and inactive calls. How the source made its calls: active means hit-call score of the fitted dose curve at least 0.9, where 1 is the maximum; inactive means score below 0.9.
Please state which outcome applies, choosing from YES = active, NO = inactive

Worked examples follow.
Which outcome was assigned to CN(C)c1ccc(C(=C2C=CC(=[N+](C)C)C=C2)c2ccc(N(C)C)cc2)cc1 in this test?
YES

Which outcome was assigned to Cc1ncc(CO)c(CO)c1O in this test?
NO

Which outcome was assigned to O=CCCCC=O in this test?
NO

Which outcome was assigned to CCCOC(=O)c1cc(O)c(O)c(O)c1 in this test?
NO

Which outcome was assigned to Cc1cn([C@H]2C[C@H](N=[N+]=[N-])[C@@H](CO)O2)c(=O)[nH]c1=O in this test?
NO

Others:
Which outcome was assigned to CC(=O)N1CCN(c2ccc(OC[C@H]3CO[C@](Cn4ccnc4)(c4ccc(Cl)cc4Cl)O3)cc2)CC1 in this test?
YES

Which outcome was assigned to CCCC(=O)OCCC(C)C in this test?
NO

Which outcome was assigned to O=C(O)Cn1c(=O)n(Cc2ccc(Br)cc2F)c(=O)c2ccc(Cl)cc21 in this test?
NO
